assay: Metabolic stability in human microsomes assessed as intrinsic clearance at 1 uM preincubated for 60 mins followed by NADPH addition and measured after 60 mins; assay type: ADME, Microsome; conditions: time 120 min, read-out: CLH
measurementType: microsomal CLint at 1 µM (µL/min/mg)
Answer in µL/min/mg, number only, no unit symbol.

Return reported microsomal CLint at 1 µM; argument: C[C@]12CC[C@H]3[C@@H](CCC4=CC(=O)CC[C@@]43C)[C@@H]1CC[C@@H]2O 83

* * *

experiment: Cytotoxicity against human MT4 cells assessed as reduction in cell viability after 5 days by MTT assay; assay type: toxicity, cell-based; settings: time 5 day
CC50 at 120 h vs 20 µM: less than gives Yes; not less than gives No.

Use the examples below as a reference point.
[[record]]
compoundstructure = "COc1ccc(N(C)C(=O)[C@H](Cc2ccccc2)NC(=O)CN2CCN(C(=O)c3cccc(C(F)(F)F)c3)CC2=O)cc1"
labelvalue = "Yes"

[[record]]
compoundstructure = "COc1ccc(N(C)C(=O)[C@H](Cc2ccccc2)NC(=O)CN2CCN(C(=O)c3ccccc3C(F)(F)F)CC2=O)cc1"
labelvalue = "No"

[[record]]
compoundstructure = "COc1ccc(N(C)C(=O)[C@H](Cc2ccccc2)NC(=O)CN2CCN(C(=O)c3cccc(F)c3)CC2=O)cc1"
labelvalue = "No"

[[record]]
compoundstructure = "COc1ccc(N(C)C(=O)[C@H](Cc2cc(F)cc(F)c2)NC(=O)CN2CCN(C(=O)c3ccccc3F)CC2=O)cc1"
labelvalue = "No"

[[record]]
compoundstructure = "COc1ccc(N(C)C(=O)[C@H](Cc2ccccc2)NC(=O)CN2CCN(C(=O)c3cccc([N+](=O)[O-])c3)CC2=O)cc1"
labelvalue = "No"


hey, is CC50 at 120 h for COc1ccc(N(C)C(=O)[C@H](Cc2cc(F)cc(F)c2)NC(=O)CN2CCN(C(=O)c3cccc(F)c3)CC2=O)cc1 lower than 20 µM or not? No

Entry to check: COc1ccc(N(C)C(=O)[C@H](Cc2cc(F)cc(F)c2)NC(=O)CN2CCN(C(=O)c3cccc(C(F)(F)F)c3)CC2=O)cc1 Yes

Entry to check: COC(=O)c1ccc(C(=O)N2CCN(CC(=O)N[C@@H](Cc3ccccc3)C(=O)N(C)c3ccc(OC)cc3)C(=O)C2)cc1 No

Entry to check: COc1ccc(N(C)C(=O)[C@H](Cc2ccccc2)NC(=O)CN2CCN(C(=O)c3ccc(Cl)cc3)CC2=O)cc1 Yes

Entry to check: COc1ccc(N(C)C(=O)[C@H](Cc2cc(F)cc(F)c2)NC(=O)CN2CCN(C(=O)c3ccccc3C(F)(F)F)CC2=O)cc1 No

Entry to check: COc1ccc(N(C)C(=O)[C@H](Cc2ccccc2)NC(=O)CN2CCN(C(=O)c3ccccc3F)CC2=O)cc1 No

* * *

test: Cytotoxicity against human MT4 cells assessed as reduction in cell viability after 5 days by MTT assay; format: toxicity, cell-based; details: time 5 day
measurementType: CC50 at 120 h (µM)
Answer in µM, number only, no unit symbol.

Use these answered entries as a reference point.
[[record]]
compoundstructure = "COc1ccc(N(C)C(=O)[C@H](Cc2cc(F)cc(F)c2)NC(=O)CN2CCN(C(=O)c3ccc(Br)cc3)CC2=O)cc1"
experimentalresult = 19

[[record]]
compoundstructure = "COc1ccc(N(C)C(=O)[C@H](Cc2cc(F)cc(F)c2)NC(=O)CN2CCN(C(=O)c3ccc(C)cc3)CC2=O)cc1"
experimentalresult = 74

[[record]]
compoundstructure = "COc1ccc(N(C)C(=O)[C@H](Cc2cc(F)cc(F)c2)NC(=O)CN2CCN(C(=O)c3ccccc3N)CC2=O)cc1"
experimentalresult = 160

[[record]]
compoundstructure = "COc1ccc(N(C)C(=O)[C@H](Cc2cc(F)cc(F)c2)NC(=O)CN2CCN(C(=O)c3ccccc3[N+](=O)[O-])CC2=O)cc1"
experimentalresult = 160

[[record]]
compoundstructure = "COc1ccc(C(=O)N2CCN(CC(=O)N[C@@H](Cc3cc(F)cc(F)c3)C(=O)N(C)c3ccc(OC)cc3)C(=O)C2)cc1"
experimentalresult = 96


// below: CC50 at 120 h requested for another molecule
Return reported CC50 at 120 h; argument: Cc1[nH]c2ccccc2c1CC(=O)[C@@H](Cc1ccccc1)C(=O)N(C)c1ccccc1 32

* * *

assay: Metabolic stability in human liver assessed as intrinsic clearance at 1 uM preincubated for 10 mins followed by NADPH addition and measured after 60 mins; conditions: read-out: CLH
Listed compounds paired with reported CLint scaled at 1 µM

Use these answered entries as a reference point.
[[record]]
compound = "Cc1[nH]c2ccccc2c1CC(=O)[C@@H](Cc1ccccc1)C(=O)N(C)c1ccccc1"
experimentalresult = "2.6 mL/min/kg"

[[record]]
compound = "COc1ccc(N(C)C(=O)[C@H](Cc2cc(F)cc(F)c2)NC(=O)CN2CCN(C(=O)c3ccccc3[N+](=O)[O-])CC2=O)cc1"
experimentalresult = "3.3 mL/min/kg"

[[record]]
compound = "O=C(O)Cc1ccccc1Nc1c(Cl)cccc1Cl [DICLOFENAC]"
experimentalresult = "3.3 mL/min/kg"


Return reported CLint scaled at 1 µM; argument: C[C@]12CC[C@H]3[C@@H](CCC4=CC(=O)CC[C@@]43C)[C@@H]1CC[C@@H]2O [TESTOSTERONE] 74 mL/min/kg

* * *

assay: Selectivity index, ratio of CC50 for human MT4 cells to EC50 for HIV-2 ROD infected in human MT4 cells; assay type: toxicity, cell-based; settings: read-out: Ratio CC50/EC50
Listed molecules paired with reported selectivity ratio
Write no unit; give the number alone.

Return reported selectivity ratio; argument: COc1ccc(N(C)C(=O)[C@H](Cc2cc(F)cc(F)c2)NC(=O)CN2CCN(C(=O)c3ccccc3F)CC2=O)cc1 26

Entry to check: COc1ccc(N(C)C(=O)[C@H](Cc2ccccc2)NC(=O)CN2CCN(C(=O)c3ccccc3N)CC2=O)cc1 30

Entry to check: COc1ccc(N(C)C(=O)[C@H](Cc2ccccc2)NC(=O)CN2CCN(C(=O)c3ccccc3F)CC2=O)cc1 18

* * *

test: Selectivity index, ratio of CC50 for human MT4 cells to EC50 for HIV-1 IIIB infected in human MT4 cells; type: toxicity, cell-based; details: read-out: Ratio CC50/EC50
measurementType: selectivity ratio
Write no unit; give the number alone.

[[record]]
compoundstructure = "COc1ccc(N(C)C(=O)[C@H](Cc2cc(F)cc(F)c2)NC(=O)CN2CCN(C(=O)c3cccc(F)c3)CC2=O)cc1"
measurementtype = "selectivity ratio"
experimentalresult = 4

[[record]]
compoundstructure = "COc1ccc(N(C)C(=O)[C@H](Cc2cc(F)cc(F)c2)NC(=O)CN2CCN(C(=O)c3cccc([N+](=O)[O-])c3)CC2=O)cc1"
measurementtype = "selectivity ratio"
experimentalresult = 1.4

[[record]]
compoundstructure = "COc1ccc(N(C)C(=O)[C@H](Cc2ccccc2)NC(=O)CN2CCN(C(=O)c3ccc(C)cc3)CC2=O)cc1"
measurementtype = "selectivity ratio"
experimentalresult = 1.9

[[record]]
compoundstructure = "COC(=O)c1ccc(C(=O)N2CCN(CC(=O)N[C@@H](Cc3cc(F)cc(F)c3)C(=O)N(C)c3ccc(OC)cc3)C(=O)C2)cc1"
measurementtype = "selectivity ratio"
experimentalresult = 6.7

[[record]]
compoundstructure = "COc1ccc(N(C)C(=O)[C@H](Cc2cc(F)cc(F)c2)NC(=O)CN2CCN(C(=O)c3ccc(F)cc3)CC2=O)cc1"
measurementtype = "selectivity ratio"
experimentalresult = 3.8


// below: selectivity ratio requested for another molecule
Return reported selectivity ratio; argument: COc1ccc(N(C)C(=O)[C@H](Cc2cc(F)cc(F)c2)NC(=O)CN2CCN(C(=O)c3ccccc3)CC2=O)cc1 4.4

* * *

Listed molecules paired with reported CC50 at 120 h
assay: Cytotoxicity against human MT4 cells assessed as reduction in cell viability after 5 days by MTT assay; format: toxicity, cell-based; conditions: time 5 day
Answer in µM, number only, no unit symbol.

Use these answered entries as a reference point.
[[record]]
compoundstructure = "COc1ccc(C(=O)N2CCN(CC(=O)N[C@@H](Cc3ccccc3)C(=O)N(C)c3ccc(OC)cc3)C(=O)C2)cc1"
measurementtype = "CC50 at 120 h"
readoutunit = "µM"
experimentalresult = 110

[[record]]
compoundstructure = "COc1ccc(N(C)C(=O)[C@H](Cc2ccccc2)NC(=O)CN2CCN(C(=O)c3ccccc3N)CC2=O)cc1"
measurementtype = "CC50 at 120 h"
readoutunit = "µM"
experimentalresult = 160

[[record]]
compoundstructure = "COc1ccc(N(C)C(=O)[C@H](Cc2cc(F)cc(F)c2)NC(=O)CN2CCN(C(=O)c3ccc(Cl)cc3)CC2=O)cc1"
measurementtype = "CC50 at 120 h"
readoutunit = "µM"
experimentalresult = 19

[[record]]
compoundstructure = "COC(=O)c1ccc(C(=O)N2CCN(CC(=O)N[C@@H](Cc3cc(F)cc(F)c3)C(=O)N(C)c3ccc(OC)cc3)C(=O)C2)cc1"
measurementtype = "CC50 at 120 h"
readoutunit = "µM"
experimentalresult = 120

[[record]]
compoundstructure = "COc1ccc(N(C)C(=O)[C@H](Cc2cc(F)cc(F)c2)NC(=O)CN2CCN(C(=O)c3ccccc3)CC2=O)cc1"
measurementtype = "CC50 at 120 h"
readoutunit = "µM"
experimentalresult = 110


Return reported CC50 at 120 h; argument: COc1ccc(N(C)C(=O)[C@H](Cc2ccccc2)NC(=O)CN2CCN(C(=O)c3ccc(C(F)(F)F)cc3)CC2=O)cc1 42

Entry to check: COc1ccc(N(C)C(=O)[C@H](Cc2cc(F)cc(F)c2)NC(=O)CN2CCN(C(=O)c3cccc([N+](=O)[O-])c3)CC2=O)cc1 47

Entry to check: COc1ccc(N(C)C(=O)[C@H](Cc2cc(F)cc(F)c2)NC(=O)CN2CCN(C(=O)c3ccc(C(F)(F)F)cc3)CC2=O)cc1 18

Entry to check: COc1ccc(N(C)C(=O)[C@H](Cc2ccccc2)NC(=O)CN2CCN(C(=O)c3ccc(C)cc3)CC2=O)cc1 64

Entry to check: COc1ccc(N(C)C(=O)[C@H](Cc2ccccc2)NC(=O)CN2CCN(C(=O)c3ccccc3[N+](=O)[O-])CC2=O)cc1 180

Entry to check: COc1ccc(N(C)C(=O)[C@H](Cc2cc(F)cc(F)c2)NC(=O)CN2CCN(C(=O)c3ccc([N+](=O)[O-])cc3)CC2=O)cc1 18

Entry to check: COc1ccc(N(C)C(=O)[C@H](Cc2ccccc2)NC(=O)CN2CCN(C(=O)c3ccc(Br)cc3)CC2=O)cc1 11

Entry to check: COc1ccc(N(C)C(=O)[C@H](Cc2ccccc2)NC(=O)CN2CCN(C(=O)c3ccc(F)cc3)CC2=O)cc1 77

src = ChEMBL document CHEMBL5329160
